- assayDetails: Hypochlorous acid scavenging activity assessed as inhibition of DHR oxidation
- Assay type: functional
observationType: pIC50
pIC50 here is simply -log10 of the concentration when that concentration is written in mol/L.

// below: answered compounds
INSERT INTO assay_data (compound, observationtype, observed) VALUES
  ('O=c1cc(/C=C/c2ccc(O)c(O)c2)oc2cccc(O)c12', 'pIC50', 4.77),
  ('O=c1cc(/C=C/c2ccc(O)cc2)oc2cc(O)cc(O)c12', 'pIC50', 5.07),
  ('O=c1cc(-c2ccc(O)c(O)c2)oc2cc(O)cc(O)c12', 'pIC50', 5.15),
  ('O=c1cc(/C=C/c2ccc(O)cc2)oc2cc(O)ccc12', 'pIC50', 4.04),
  ('O=c1cc(/C=C/c2ccc(O)c(O)c2)oc2ccccc12', 'pIC50', 4.49),
  ('O=c1cc(-c2ccc(O)cc2)oc2cc(O)cc(O)c12', 'pIC50', 5.41),
  ('O=c1cc(-c2ccccc2)oc2cc(O)ccc12 [7-HYDROXYFLAVONE]', 'pIC50', 3.83);

// switching to the query compound
Using the record for `O=c1cc(/C=C/c2ccccc2)oc2cc(O)cc(O)c12` , report its pIC50.
5.24
